Below, each entry is listed with its recorded MIC Streptococcus pneumoniae (ATCC 6301).
Test system: Streptococcus sp.
test-description: in vitro antibacterial evaluation, MIC by broth dilution
Assay type: cell-based
condition-set: broth dilution, 18 hours at 35° C.; strain ATCC 6301
measurement-type: MIC Streptococcus pneumoniae (ATCC 6301) (µg/mL)

1) CC(c1ccccc1)C1NC(=O)CNC(=O)C(CO)NC(=O)C(C(O)C2CNC(=N)N2C2OC(CO)C(O)C(O)C2O)NC(=O)C(C(O)C2CNC(=N)N2)NC(=O)C(Cc2ccc(OC3OC(CO)C(OC4OC(CO)C(O)C(O)C4O)C(O)C3O)c(N)c2)NC1=O (centres unmarked) | 64
2) CC(c1ccccc1)C1NC(=O)CNC(=O)C(CO)NC(=O)C(C(O)C2CN(Cc3ccc(-c4ccccc4)cc3)C(=N)N2C2OC(CO)C(O)C(O)C2O)NC(=O)C(C(O)C2CNC(=NCc3ccc(-c4ccccc4)cc3)N2Cc2ccc(-c3ccccc3)cc2)NC(=O)C(Cc2ccc(OC3OC(CO)C(OC4OC(CO)C(O)C(O)C4O)C(O)C3O)cc2)NC1=O (centres unmarked) | 32
3) CC(C)=CCCC1OCC2OC(OC3C(CO)OC(Oc4ccc(CC5NC(=O)C(C(C)c6ccccc6)NC(=O)CNC(=O)C(CO)NC(=O)C(C(O)C6CNC(=N)N6C6OC(CO)C(O)C(O)C6O)NC(=O)C(C(O)C6CNC(=N)N6)NC5=O)cc4)C(O)C3O)C(O)C(O)C2O1 (centres unmarked) | 1
4) CC=C(C)C(=O)OC1C(CO)OC(OC2C(CO)OC(Oc3ccc(CC4NC(=O)C(C(C)c5ccccc5)NC(=O)CNC(=O)C(CO)NC(=O)C(C(O)C5CNC(=N)N5C5OC(CO)C(O)C(O)C5O)NC(=O)C(C(O)C5CNC(=N)N5)NC4=O)cc3)C(O)C2O)C(O)C1O (centres unmarked) [Example 278b] | 1
5) CC(C)=CCCC(C)=CCN=C1NCC(C(O)C2NC(=O)C(C(O)C3CNC(=N)N3)NC(=O)C(Cc3ccc(OC4OC(CO)C(OC5OC6COC7(OC6C(O)C5O)C5CC6CC(C5)CC7C6)C(O)C4O)cc3)NC(=O)C(C(C)c3ccccc3)NC(=O)CNC(=O)C(CO)NC2=O)N1C1OC(CO)C(O)C(O)C1O (centres unmarked) | 2

###

Test system: Enterococcus sp.
test-description: in vitro antibacterial evaluation, MIC by broth dilution
Format: cell-based
condition-set: broth dilution, 18 hours at 35° C.; strain ATCC 29212
measurement-type: MIC Enterococcus faecalis (ATCC 29212)

1) CC(c1ccccc1)C1NC(=O)CNC(=O)C(CO)NC(=O)C(C(O)C2CNC(=N)N2C2OC(CO)C(O)C(O)C2O)NC(=O)C(C(O)C2CNC(=N)N2)NC(=O)C(Cc2ccc(OC3OC(CO)C(OC4OC5COC(c6ccsc6)OC5C(O)C4O)C(O)C3O)cc2)NC1=O (stereo not drawn) | 8 µg/mL
2) N=C1NCC(C(O)C2NC(=O)C(Cc3ccc(OC4OC(CO)C(OC5OC6COC7(OC6C(O)C5O)C5CC6CC(C5)CC7C6)C(O)C4O)cc3)NC(=O)C(CC3CCCCC3)NC(=O)CNC(=O)C(CO)NC(=O)C(C(O)C3CNC(=N)N3C3OC(CO)C(O)C(O)C3O)NC2=O)N1 (stereo not drawn) | 0.5 to 2 µg/mL
3) COc1ccc2cc(COC3C(OC4C(CO)OC(Oc5ccc(CC6NC(=O)C(C(C)c7ccccc7)NC(=O)CNC(=O)C(CO)NC(=O)C(CC7CNC(=N)N7C7OC(CO)C(O)C(O)C7O)NC(=O)C(CC7CNC(=N)N7)NC6=O)cc5)C(O)C4O)OC(CO)C(O)C3O)ccc2c1 (stereo not drawn) [Example 245c] | >128 µg/mL

###

System: Escherichia coli
test-description: in vitro antibacterial evaluation, MIC by broth dilution
Format: cell-based
condition-set: 18 hours at 35° C.
Numbered stars: 1 amine (or outer) side, 2 acyl side, 3 side chain; on linkers, the order of the positions; unused ones are H or OH. Square brackets hold non-standard residues; d marks the D form. Peptide text beside a SMILES is read from it. ξ: configuration not given here. X3 = CC1(C)OCC2OC(N3C(=N)NCC3C(O)C(N[*:1])C(=O)[*:2])C3OC(C)(C)OC3C2O1; ξEnduracididine(βξ-OH,4'ξ) = N=C1NCC(C(O)C(N)C(=O)O)N1; ξPhe(βξ-Me) = CC(c1ccccc1)C(N)C(=O)O
measurement-type: MIC Escherichia coli (GC 4559)

1) CC(c1ccccc1)C1NC(=O)CNC(=O)C(CO)NC(=O)C(C(O)C2CNC(=N)N2C2OC(CO)C(O)C(O)C2O)NC(=O)C(C(O)C2CNC(=N)N2)NC(=O)C(Cc2ccc(OC3OC(CO)C(OC4OC(CO)C(OCC=Cc5ccc(N(C)C)cc5)C(O)C4O)C(O)C3O)cc2)NC1=O (stereo not drawn) [Example 243a] | >64 µg/mL
2) CC(c1ccccc1)C1NC(=O)CNC(=O)C(CO)NC(=O)C(C(O)C2CNC(=N)N2C2OC3COC(C)(C)OC3C3OC(C)(C)OC32)NC(=O)C(C(O)C2CNC(=N)N2)NC(=O)C(Cc2ccc(O)cc2)NC1=O (stereo not drawn) [Example 247] (cyclo(G[ξPhe(βξ-Me)]Y[ξEnduracididine(βξ-OH,4'ξ)][X3]S); configuration not given here) | >64 µg/mL
3) CC(c1ccccc1)C1NC(=O)CNC(=O)C(CO)NC(=O)C(C(O)C2CNC(=N)N2C2OC(CO)C(O)C3OC(C)(C)OC32)NC(=O)C(C(O)C2CNC(=N)N2)NC(=O)C(Cc2ccc(OC3OC(CO)C(OC4OC5COC(C)(C)OC5C5OC(C)(C)OC45)C4OC(C)(C)OC34)cc2)NC1=O (stereo not drawn) [Example 229b] | >128 µg/mL

###

List of MIC Staphylococcus aureus (ATCC 29213) values.
Tested on: Staphylococcus sp.
test-description: in vitro antibacterial evaluation, MIC by broth dilution
Type: cell-based
condition-set: broth dilution, 18 hours at 35° C.; strain ATCC 29213
measurement-type: MIC Staphylococcus aureus (ATCC 29213) (µg/mL)

1) CC(c1ccccc1)C1NC(=O)CNC(=O)C(CO)NC(=O)C(C(O)C2CNC(=N)N2C2OC(CO)C(O)C(O)C2O)NC(=O)C(C(O)C2CNC(=N)N2)NC(=O)C(Cc2ccc(OC3OC(CO)C(OC4OC(CO)C(O)C5OC(c6ccc(-c7ccsc7)cc6)OC45)C(O)C3O)cc2)NC1=O (stereo not shown) [Example 164a] | 8
2) CCCCCCCC1OCC2OC(OC3C(CO)OC(Oc4ccc(CC5NC(=O)C(C(C)c6ccccc6)NC(=O)CNC(=O)C(CO)NC(=O)C(C(O)C6CNC(=N)N6C6OC(CO)C(O)C(O)C6O)NC(=O)C(C(O)C6CNC(=N)N6)NC5=O)cc4)C(O)C3O)C(O)C(O)C2O1 (stereo not shown) | 1
3) CC(c1ccccc1)C1NC(=O)CNC(=O)C(CO)NC(=O)C(C(O)C2CNC(=N)N2C2OC(CO)C(O)C(O)C2O)NC(=O)C(C(O)C2CNC(=N)N2)NC(=O)C(Cc2ccc(OC3OC(CO)C(OC4OC5COC(c6ccc(S(C)(=O)=O)cc6)OC5C(O)C4O)C(O)C3O)cc2)NC1=O (stereo not shown) | 32
4) CCOc1cc(COCC2OC(OC3C(CO)OC(Oc4ccc(CC5NC(=O)C(C(C)c6ccccc6)NC(=O)CNC(=O)C(CO)NC(=O)C(C(O)C6CNC(=N)N6C6OC(CO)C(O)C(O)C6O)NC(=O)C(C(O)C6CNC(=N)N6)NC5=O)cc4)C(O)C3O)C(O)C(O)C2O)ccc1OC (stereo not shown) | 4
5) COc1ccc(COCC2OC(OC3C(CO)OC(Oc4ccc(CC5NC(=O)C(C(C)c6ccccc6)NC(=O)CNC(=O)C(CO)NC(=O)C(C(O)C6CNC(=N)N6C6OC(CO)C(O)C(O)C6O)NC(=O)C(C(O)C6CNC(=N)N6)NC5=O)cc4)C(O)C3O)C(O)C(O)C2O)cc1 (stereo not shown) | 4

###

Test system: Escherichia coli
test-description: in vitro antibacterial evaluation, MIC by broth dilution
Assay type: cell-based
condition-set: strain GC 4560; broth dilution, 18 hours at 35° C.
Numbered stars: 1 amine (or outer) side, 2 acyl side, 3 side chain; on linkers, the order of the positions; unused ones are H or OH. Square brackets hold non-standard residues; d marks the D form. Peptide text beside a SMILES is read from it. ξ: configuration not given here. X1 = N=C1NCC(C(O)C(N[*:1])C(=O)[*:2])N1C1OC(CO)C(O)C(O)C1O; ξEnduracididine(βξ-OH,4'ξ) = N=C1NCC(C(O)C(N)C(=O)O)N1; Cha = N[CH](CC1CCCCC1)C(=O)O
compounds and their reported MIC Escherichia coli (GC 4560)
measurement-type: MIC Escherichia coli (GC 4560) (µg/mL)

1) CC(c1ccccc1)C1NC(=O)CNC(=O)C(CO)NC(=O)C(C(O)C2CNC(=N)N2C2OC(CO)C(O)C(O)C2O)NC(=O)C(C(O)C2CNC(=N)N2)NC(=O)C(Cc2ccc3oc(-c4cccc([N+](=O)[O-])c4)nc3c2)NC1=O (centres unmarked) | 16
2) CC(C)C(=O)Nc1cc(CC2NC(=O)C(C(C)c3ccccc3)NC(=O)CNC(=O)C(CO)NC(=O)C(C(O)C3CNC(=N)N3C3OC(CO)C(O)C(O)C3O)NC(=O)C(C(O)C3CNC(=N)N3)NC2=O)ccc1O (centres unmarked) | 128
3) CC(c1ccccc1)C1NC(=O)CNC(=O)C(CO)NC(=O)C(CC2CNC(=N)N2C2OC(CO)C(O)C(O)C2O)NC(=O)C(CC2CNC(=N)N2)NC(=O)C(Cc2ccc3oc(-c4ccc5c(c4)Cc4ccccc4-5)nc3c2)NC1=O (centres unmarked) | 1
4) CC(c1ccccc1)C1NC(=O)CNC(=O)C(CO)NC(=O)C(C(O)C2CNC(=N)N2C2OC(CO)C(O)C(O)C2O)NC(=O)C(C(O)C2CNC(=N)N2)NC(=O)C(Cc2ccc3oc(-c4ccc(OCc5ccccc5)cc4)nc3c2)NC1=O (centres unmarked) | 32
5) COc1cc(-c2nc3cc(CC4NC(=O)C(C(C)c5ccccc5)NC(=O)CNC(=O)C(CO)NC(=O)C(C(O)C5CNC(=N)N5C5OC(CO)C(O)C(O)C5O)NC(=O)C(C(O)C5CNC(=N)N5)NC4=O)ccc3o2)cc(OC)c1OC (centres unmarked) | 16
6) N=C1NCC(C(O)C2NC(=O)C(CC3CCCCC3)NC(=O)C(CC3CCCCC3)NC(=O)CNC(=O)C(CO)NC(=O)C(C(O)C3CNC(=N)N3C3OC(CO)C(O)C(O)C3O)NC2=O)N1 (stereo not drawn) [Example 52] (cyclo(G[Cha][Cha][ξEnduracididine(βξ-OH,4'ξ)][X1]S); configuration not given here) | 16
7) CC(c1ccccc1)C1NC(=O)CNC(=O)C(CO)NC(=O)C(C(O)C2CNC(=N)N2C2OC(CO)C(O)C(O)C2O)NC(=O)C(C(O)C2CNC(=N)N2)NC(=O)C(Cc2ccc3oc(SCc4ccc5ccccc5c4)nc3c2)NC1=O (centres unmarked) | 16
